All values here come from PubChem BioAssay (NCI).

measurementNotes: NCI Yeast Anticancer Drug Screen. Data for the cln2 rad14 strain (AID 165);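 also: 0% = growth equal to vehicle treated cultures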
conditionNotes: S. cerevisiae cln2 rad14 strain, at 50.0 µM, active compounds read high
About 79,000 compounds went through this panel and 15% of them were active in at least one assay; those are over-represented in the sample as a whole.
Reported growth inhibition values follow for various compounds
API: value field is a number in %; no unit string.

Field growth inhibition (entry O=C(Nc1cccc(Cl)c1)C(Br)C(Br)c1ccccc1 (stereo not drawn) ) reads 99.2

Field growth inhibition (entry "CN(C)Cc1cc(C(=O)/C=C/c2c(Cl)cccc2Cl)cc(CN(C)C)c1O" ) reads -31.2

Field growth inhibition (entry "COc1cc(CNC(=S)CCCCCCCCCCC(C)C)ccc1O" ) reads -26.4

Field growth inhibition (entry "CCCCCOC(=O)c1cccnc1" ) reads -0.2

Field growth inhibition (entry C=C1CC2OC(=O)C(=C)C2C(OC(=O)c2ccccc2)/C=C(\C)CCC1OC(=O)c1ccccc1 (stereo not drawn) ) reads -39.3

* * *

measurementNotes: NCI Yeast Anticancer Drug Screen. Data for the sgs1 mgt1 strain (AID 161);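 also: 0% = growth of cultures given vehicle only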
conditionNotes: S. cerevisiae sgs1 mgt1 strain, at 50.0 µM, active compounds read high
Compounds without any hit were thinned out: in the full panel of roughly 79,000, 15% have a hit.
measurementType: growth inhibition (%)
API: value field is a number in %; no unit string.

Worked examples, 3 compounds total:
compound=CCOC(CN/C(=C/c1ccc2ccccc2[n+]1C)SC)OCC val=-8.4
compound=CC(=N\N=C(N)N)/C(N=Nc1ccc(S(N)(=O)=O)cc1)=N\N=C(N)N val=19.4
compound="CC(Br)C(=O)n1c2ccccc2c2ccccc21 (stereo unspecified)" val=19.8

Field growth inhibition (entry "CCC(C)(C)c1ccc(O)c(CNCCO)c1" ) reads 2.9

Field growth inhibition (entry "CSC1=Nc2cccnc2Nc2cscc21" ) reads 22.1

Field growth inhibition (entry "CC(C)N(C)c1ncnc2c1cnn2C" ) reads -3.95

* * *

measurementNotes: NCI Yeast Anticancer Drug Screen. Data for the rad50 strain (AID 155);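 also: 0% = growth of vehicle-only cultures of the same strain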
conditionNotes: S. cerevisiae rad50 strain growth inhibition; at 50.0 µM; active compounds read high
This is part of a sample that, as a whole, favours compounds with a hit. Of some 79,000 tested, about 15% had one in any assay. Where a SMILES comes first, the peptide text is derived from it. [ ]: non-standard residue; d: D form. The star is where a group is joined. ξ: configuration not given here. ξPhe(4-NO2) = NC(Cc1ccc([N+](=O)[O-])cc1)C(=O)O; Boc = CC(C)(C)OC(=O)*; OBn = c1ccc(CO*)cc1
Please enter Fulfilled where growth inhibition is greater than or equal to 10%, and Not fulfilled where it is lower.

Example entries begin here.
compound=Cn1c(N)c(N=Cc2ccc(Cl)cc2)c(=O)n(C)c1=O category="Not fulfilled"
compound="Cc1cccc(C(C)(C)C)c1NC(=O)C(=O)C(C(=O)/C=C\\c1ccccc1)C1OC(=O)c2ccccc21 (stereo unspecified)" category="Not fulfilled"
compound=CC1=CC(=O)/C(=C/n2c(=S)sc3ccccc32)C(=O)O1 category="Not fulfilled"
compound="CC(C)(C)OC(=O)NC(Cc1ccc([N+](=O)[O-])cc1)C(=O)NCC(=O)OCc1ccccc1 (stereo unspecified) (Boc-[ξPhe(4-NO2)]-Gly-OBn)" category="Not fulfilled"
compound=O=[N+]([O-])c1cccc(/C=C/C=C/c2ccc(Cl)c(Cl)c2)c1 category="Not fulfilled"
compound=CC(=O)Nc1ccc(F)c(N)c1 category="Not fulfilled"

q: Is growth inhibition for NC(=S)N/N=C1\CCCC1C(O)(C(F)(F)Cl)C(F)(F)Cl (stereo unspecified) at or above 10%?
a: Fulfilled

q: Is growth inhibition for "CCOC(=O)/C(N=O)=C(/C)O" at or above 10%?
a: Fulfilled

q: Is growth inhibition for "CCOc1cc(=O)cc2n(-c3cc(OCC)c(OC)c(OCC)c3)c3ccccc3nc1-2" at or above 10%?
a: Fulfilled

q: Is growth inhibition for "CN(c1nc(=[N+](C)C)ss1)C1CCCCC1" at or above 10%?
a: Not fulfilled

q: Is growth inhibition for O=c1c2c(nc3n1CCC3)OC(c1ccccc1)C2 (stereo unspecified) at or above 10%?
a: Not fulfilled

q: Is growth inhibition for "C/C=C/C=C1/OC(C)=C(C(=O)OCC)C1=O" at or above 10%?
a: Not fulfilled

q: Is growth inhibition for NC(=O)C(Br)Cc1cccc(Cl)c1 (stereo unspecified) at or above 10%?
a: Fulfilled

q: Is growth inhibition for "O=C(Nc1cccc(C(=O)Nc2ccc(S(=O)(=O)O)c3cc(S(=O)(=O)O)cc(S(=O)(=O)O)c23)c1)Nc1cccc(C(=O)Nc2cccc3c(S(=O)(=O)O)c(S(=O)(=O)O)cc(S(=O)(=O)O)c23)c1" at or above 10%?
a: Not fulfilled

q: Is growth inhibition for "O=C(C[n+]1cccc(CO)c1)c1ccc(-c2ccc(C(=O)C[n+]3cccc(CO)c3)cc2)cc1" at or above 10%?
a: Fulfilled

q: Is growth inhibition for "C=C(C)S(=O)(=O)c1ccc(C)cc1" at or above 10%?
a: Fulfilled
